target: human CD71 on cells (SKBR3; SW620-rLuc-KRAS) (human, UniProt P02786 1-760); assay: cell-based or functional assay
Sequence (P02786 whole entry): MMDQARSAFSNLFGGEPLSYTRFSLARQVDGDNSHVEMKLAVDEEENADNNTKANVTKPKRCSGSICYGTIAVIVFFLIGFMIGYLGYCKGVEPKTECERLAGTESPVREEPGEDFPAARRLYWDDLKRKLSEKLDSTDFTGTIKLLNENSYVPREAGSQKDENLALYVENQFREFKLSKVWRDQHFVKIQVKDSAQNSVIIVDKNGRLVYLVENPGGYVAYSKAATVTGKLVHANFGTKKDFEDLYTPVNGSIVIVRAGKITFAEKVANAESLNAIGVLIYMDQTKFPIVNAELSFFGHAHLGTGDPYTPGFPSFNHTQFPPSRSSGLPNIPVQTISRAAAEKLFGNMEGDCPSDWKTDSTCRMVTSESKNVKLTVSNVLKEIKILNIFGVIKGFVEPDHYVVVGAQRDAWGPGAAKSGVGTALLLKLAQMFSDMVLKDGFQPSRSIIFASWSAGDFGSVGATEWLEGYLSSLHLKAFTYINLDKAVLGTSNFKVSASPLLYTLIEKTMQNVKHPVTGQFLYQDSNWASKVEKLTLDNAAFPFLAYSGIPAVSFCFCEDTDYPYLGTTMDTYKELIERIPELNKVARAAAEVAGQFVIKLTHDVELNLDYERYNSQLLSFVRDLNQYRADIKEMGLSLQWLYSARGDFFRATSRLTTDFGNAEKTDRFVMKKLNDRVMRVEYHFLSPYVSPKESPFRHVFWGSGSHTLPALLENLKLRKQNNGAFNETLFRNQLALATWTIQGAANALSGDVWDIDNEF
# maps each entry to its LSA EC50 (luciferase reporter assay, SW620-rLuc-KRAS cells, 72 h)
Number only, in nM; omit the unit.

// known answers, use as guide
Read the entry CD71-binding FN3 domain of SEQ ID NO: 335 conjugated to KRAS2 siRNA (designed binder, conjugated to KRAS2 tool siRNA; site and linker not stated) MSLPAPKNLVVSRVTEDSARLSWTAPDAAFDSFFIGYLEPQPPGEAIDLYVPGSERSYDLTGLKPGTEYNVTIQGVKGGFPSLPLVATFTT and write its reported LSA EC50 (luciferase reporter assay, SW620-rLuc-KRAS cells, 72 h).
0.47

Fill in LSA EC50 (luciferase reporter assay, SW620-rLuc-KRAS cells, 72 h) for record CD71-binding FN3 domain of SEQ ID NO: 264 conjugated to KRAS2 siRNA (designed binder, conjugated to KRAS2 tool siRNA; site and linker not stated) MSLPAPKNLVVSRVTEDSARLSWTAPDAAFDSFFIGYLEPQPPGEAIALYVPGSERSYDLTGLKPGTEYNVTIQGVKGGFPSEPLVVHFTT
0.45

Next:
Give a short answer stating reported LSA EC50 (luciferase reporter assay, SW620-rLuc-KRAS cells, 72 h) for CD71-binding FN3 domain of SEQ ID NO: 270 conjugated to KRAS2 siRNA (designed binder, conjugated to KRAS2 tool siRNA; site and linker not stated) MSLPAPKNLVVSRVTEDSARLSWTAPDAAFDSFFIGYLEPQPPGEAIHLYVPGSERSYDLTGLKPGTEYNVTIQGVKGGFPSEPLIANSTT .
2.1

Answer with the recorded LSA EC50 (luciferase reporter assay, SW620-rLuc-KRAS cells, 72 h) for the binder listed here: CD71-binding FN3 domain of SEQ ID NO: 974 conjugated to KRAS2 siRNA (designed binder, conjugated to KRAS2 tool siRNA; site and linker not stated) MSLPAPKNLVVSRVTEDSARLSWTAPDAAFDSFFIGYLEPQPPGEAIALYVPGSERSYDLTGLKPGTEYNVTIQGVKGGFPSLPLVATFTT
0.53

Using the record for CD71-binding FN3 domain of SEQ ID NO: 972 conjugated to KRAS2 siRNA (designed binder, conjugated to KRAS2 tool siRNA; site and linker not stated) MSLPAPKNLVVSRVTEDSARLSWTAPDAAFDSFFIGYLEPQPPGEAIALYVPGSERSYDLTGLKPGTEYNVTIQGAKGGFPSEPLVVHFTT , state its measured LSA EC50 (luciferase reporter assay, SW620-rLuc-KRAS cells, 72 h).
0.49

Output LSA EC50 (luciferase reporter assay, SW620-rLuc-KRAS cells, 72 h) of CD71-binding FN3 domain of SEQ ID NO: 293 conjugated to KRAS2 siRNA (designed binder, conjugated to KRAS2 tool siRNA; site and linker not stated) MSLPAPKNLVVSRVTEDSARLSWTAPDAAFDSFFIGYLEPQPPGEAIDLYVPGSERSYDLTGLKPGTEYNVTIQGVKGGFPSHPLVATFTT
0.54
